The reported numbers originate from PubChem BioAssay (Tox21).

target: Luciferin 4-monooxygenase (Photinus pyralis) (UniProt P08659); experiment: qHTS assay to identify small molecule inhibitors of firefly luciferase (AID 1224835); also: % is scaled to controls: 0 for no effect and ±100 for the full control effect; nearly all actives have a fitted effect of over 25% in size; settings: purified P. pyralis luciferase, luminescence inhibition; series mostly up to 115 µM
Sequence (P08659 whole entry, looked up): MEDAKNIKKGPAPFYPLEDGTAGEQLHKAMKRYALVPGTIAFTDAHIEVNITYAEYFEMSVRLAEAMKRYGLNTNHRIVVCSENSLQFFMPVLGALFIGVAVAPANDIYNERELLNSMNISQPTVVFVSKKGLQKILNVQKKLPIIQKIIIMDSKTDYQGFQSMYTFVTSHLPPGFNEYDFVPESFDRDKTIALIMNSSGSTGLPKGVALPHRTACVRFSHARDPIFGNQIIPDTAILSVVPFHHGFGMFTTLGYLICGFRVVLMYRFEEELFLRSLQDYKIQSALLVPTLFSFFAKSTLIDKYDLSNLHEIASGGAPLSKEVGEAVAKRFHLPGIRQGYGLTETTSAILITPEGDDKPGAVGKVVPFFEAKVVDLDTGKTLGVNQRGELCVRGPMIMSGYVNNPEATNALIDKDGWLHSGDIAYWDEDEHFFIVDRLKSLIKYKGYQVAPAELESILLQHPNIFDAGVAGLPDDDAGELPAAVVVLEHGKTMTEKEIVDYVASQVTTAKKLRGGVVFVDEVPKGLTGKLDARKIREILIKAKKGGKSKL
Records with an inconclusive call do not appear. Activity calls are given as the source filed them. Calls follow the shape of the dose curve; as a rule, active = well fitted inhibition curve with a large enough effect in the repeat runs; inconclusive = weak or mixed curves; inactive = flat fitted curve, though single readings scatter.
Property Label: activity change, negative = inhibition

Field: example entries. Status: answers known.
{"columns": ["Compound", "activity change, negative = inhibition"],
 "data": [
  ["NC(N)=NCCC[C@H](N)C(=O)O", "0.418% [at 10.5 µM] (inactive)"],
  ["COc1cc2nc(N3CCN(C(=O)C4COc5ccccc5O4)CC3)nc(N)c2cc1OC (configuration not stated)", "inactive"],
  ["CC1(c2ccccc2)OC(C(=O)O)=CC1=O (configuration not stated)", "inactive"],
  ["CC/C=C\\CCOC(=O)CC", "inactive"],
  ["CCCCC1=NC2(CCCC2)C(=O)N1Cc1ccc(-c2ccccc2-c2nn[nH]n2)cc1", "inactive"],
  ["Nc1ccc(S(=O)(=O)Nc2ccccc2)cc1", "inactive"]
]}

activity change, negative = inhibition for `CCCCCCCCCCCCCCCCCCOS(=O)(=O)O` ? inactive

###

Assay: Caspase-3/7 induction in CHO-K1 cells by small molecules, qHTS cell viability counter screen (AID 1346979); also: nearly all actives have a fitted effect of over 35% in size
Settings: CellTiter-Fluor fluorescence, 17 h; series mostly up to 92.4 µM
Excerpt: National Center for Advancing Translational Sciences [NCATS] NIH Chemical Genomics Center [NCGC] U.S. Environmental Protection Agency [EPA] National Institutes of Environmental Health Sciences [NIEHS] National Toxicology Program [NTP] U.S. Food and Drug Administration [FDA] Apoptosis is a process of programmed cell death and plays a central role in the development of multicellular organisms. […]
Inconclusive results are not listed. Activity calls are given as the source filed them. Calls come from the whole dose curve; as a rule, active = well fitted cell-killing curve with a large enough effect in the repeat runs; inconclusive = weak or mixed curves, or effect the other way; inactive = no such curve, though single readings can be large or run the other way.
The reply should be one of these categories: true = active, false = inactive

For CC(COCCO)OCCO (stereo not drawn) , what call appears in the results of this test? false

Check the results log: what was the call for `C#CCN(C)CCCOc1ccc(Cl)cc1Cl` ? false

Dear all, I need the recorded test outcome for `CCCCCCCCCCCC(=O)OC[C@@H](O)[C@H]1OC[C@H](OCCO)[C@H]1OCCO` , thank you. false

Any idea what this test logged for CC[N+]1(CC)CCC(=C(c2ccccc2)c2ccccc2)C1C (stereo not drawn) ? false

Returns: the outcome recorded for `Nc1ccc(N)c2c1C(=O)c1ccccc1C2=O` in this assay. true

Assay result, entry `COC(C)(C)CCO` — outcome? false

Dear colleague, could you share the recorded outcome for C=CC1CC2C=CC1C2 (stereo not drawn) when you have a moment? false

Each compound tested received a call. Report the one for `Cc1nn(C)c(Oc2ccccc2)c1/C=N/OCc1ccc(C(=O)OC(C)(C)C)cc1` . true

GET /call?item= `CCc1c(C(=O)NN2CCCCC2)nn(-c2ccc(Cl)cc2Cl)c1-c1ccc(Br)cc1` returns the recorded outcome of this test. true

Please let me know the test result on file for CC(C)(C)OCC1CO1 (stereo not drawn) . false

Which outcome was assigned to `COc1ccc(C(=O)Nc2nc3ccccc3c(NCc3ccccc3)c2C#N)cc1` in this test? true

// return assay outcome for `CC(=O)NO` false

Test call for this compound, please: CN(C)CCOC(c1ccccc1)c1ccc(Br)cc1 (stereo not drawn) false

###

Biological target: Cytochrome P450 2C9 (Homo sapiens) (UniProt P11712)
Sequence (P11712 whole entry, looked up): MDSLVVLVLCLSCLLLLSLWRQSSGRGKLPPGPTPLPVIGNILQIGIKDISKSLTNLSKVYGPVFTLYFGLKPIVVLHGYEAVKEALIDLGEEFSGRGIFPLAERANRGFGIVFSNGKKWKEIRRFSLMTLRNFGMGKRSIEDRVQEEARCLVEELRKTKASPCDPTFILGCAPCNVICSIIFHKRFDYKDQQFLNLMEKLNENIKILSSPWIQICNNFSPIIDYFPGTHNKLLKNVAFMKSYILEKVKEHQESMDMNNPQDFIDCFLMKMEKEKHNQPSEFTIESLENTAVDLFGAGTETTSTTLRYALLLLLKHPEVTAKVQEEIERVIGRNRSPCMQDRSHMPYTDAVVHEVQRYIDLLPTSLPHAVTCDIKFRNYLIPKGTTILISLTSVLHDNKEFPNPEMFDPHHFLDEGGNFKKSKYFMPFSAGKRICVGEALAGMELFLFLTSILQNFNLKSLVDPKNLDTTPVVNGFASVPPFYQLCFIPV
Assay: Cytochrome P450 Family 2 Subfamily C Member 9 (CYP2C9) small molecule antagonists: luciferase reporter qHTS assay (AID 1671198); also: nearly all actives have a fitted effect of over 50% in size
Details: P450-Glo CYP2C9 enzyme assay, luciferin luminescence; series mostly up to 115 µM
Source text: U.S. Tox21 Program National Center for Advancing Translational Sciences [NCATS] U.S. Environmental Protection Agency [EPA] National Institutes of Environmental Health Sciences [NIEHS] National Toxicology Program [NTP] U.S. Food and Drug Administration [FDA] […] The luciferin products formed are detected with a luciferin detection reagent, and the amount of light produced is proportional to CYP activity. […]
Records with an inconclusive call do not appear. The source made the active and inactive calls. The call rests on the fitted dose curve; in most records, active means well fitted inhibition curve with a large enough effect in the repeat runs; inconclusive means weak or mixed curves; inactive means no such curve, though single readings can be large or run the other way.
Hi! Could you answer with just one of these? active, inactive

Assay result, entry `Nc1ncn([C@H]2C[C@H](O)[C@@H](CO)O2)c(=O)n1` — outcome? inactive

// outcome(item) with item = `CCOC(=O)C(F)(F)F` inactive

Give the logged outcome of this assay for the following molecule: `Cc1oc(-c2ccccc2)nc1CCOc1cccc2c1ccn2CCC(=O)O` active

Identify the outcome logged in this assay for the molecule shown: `O=[N+]([O-])c1cccc(S(=O)(=O)O)c1` active

Kindly provide the recorded test outcome for the following molecule: COCC(C)OC(C)=O (configuration not stated) inactive

Please indicate how the test categorized `O=C(NCCO[N+](=O)[O-])c1cccnc1` . inactive

Could you kindly confirm the outcome this assay logged for `Clc1ccc(Cn2c(CN3CCCC3)nc3ccccc32)cc1` ? active

###

test: A CellTox Green Cytotoxicity Assay to monitor cytotoxicity in HepG2 cells - 40 hour (AID 1224879); settings: CellTox Green fluorescence; series mostly up to 76.8 µM; also: nearly all actives have a fitted effect of over 40% in size; also: potency is read from the fitted curve at half-maximal effect
Inconclusive results are not listed. Activity calls are given as the source filed them. Calls follow the shape of the dose curve; as a rule, active = well fitted activation curve with a large enough effect in the repeat runs; inconclusive = weak or mixed curves; inactive = flat fitted curve, though single readings scatter.
Property Label: Potency

{"columns": ["Compound", "Potency"],
 "data": [
  ["O=C1[C@H]2CCCC[C@H]2C(=O)N1CCCCN1CCN(c2nsc3ccccc23)CC1", "inactive"],
  ["CN(C)CCCN1c2ccccc2Sc2ccccc21", "23.9 µM (active)"],
  ["C=C1[C@H]2CC[C@@H]3[C@H]2C(C)(C)CCC[C@]13C", "inactive"],
  ["CNCCCN1c2ccccc2CCc2ccccc21", "26.8 µM (active)"],
  ["COC(C)OC", "inactive"]
]}

Quick one: Potency for `COc1ccc(C(=O)Nc2nc3ccccc3c(NCc3ccccc3)c2C#N)cc1` ? inactive

Reported Potency for `Nc1ccc([N+](=O)[O-])c(C(F)(F)F)c1` : what is it? inactive

I would be grateful if you could share the reported Potency for `CNCCCCOc1ccccc1Cc1ccccc1` . 23.9 µM (active)

I have this compound here, `CCCCc1nc2cccnc2n1Cc1ccc(-c2ccccc2-c2nnn[nH]2)cc1` , and I need its recorded Potency. inactive

Would you mind telling me what Potency value was observed for `CCCCCC[C@@H](O)C/C=C\CCCCCCCC(=O)OC` ? inactive

###

target: Glucocorticoid receptor (Homo sapiens) (UniProt P04150); assay: qHTS assay to identify small molecule agonists of the glucocorticoid receptor (GR) signaling pathway (AID 720691); conditions: GR-bla HeLa, beta-lactamase reporter ratio, 18 h; as to activation: % is scaled to controls: 0 for no effect and ±100 for the full control effect
Sequence (P04150 whole entry, looked up): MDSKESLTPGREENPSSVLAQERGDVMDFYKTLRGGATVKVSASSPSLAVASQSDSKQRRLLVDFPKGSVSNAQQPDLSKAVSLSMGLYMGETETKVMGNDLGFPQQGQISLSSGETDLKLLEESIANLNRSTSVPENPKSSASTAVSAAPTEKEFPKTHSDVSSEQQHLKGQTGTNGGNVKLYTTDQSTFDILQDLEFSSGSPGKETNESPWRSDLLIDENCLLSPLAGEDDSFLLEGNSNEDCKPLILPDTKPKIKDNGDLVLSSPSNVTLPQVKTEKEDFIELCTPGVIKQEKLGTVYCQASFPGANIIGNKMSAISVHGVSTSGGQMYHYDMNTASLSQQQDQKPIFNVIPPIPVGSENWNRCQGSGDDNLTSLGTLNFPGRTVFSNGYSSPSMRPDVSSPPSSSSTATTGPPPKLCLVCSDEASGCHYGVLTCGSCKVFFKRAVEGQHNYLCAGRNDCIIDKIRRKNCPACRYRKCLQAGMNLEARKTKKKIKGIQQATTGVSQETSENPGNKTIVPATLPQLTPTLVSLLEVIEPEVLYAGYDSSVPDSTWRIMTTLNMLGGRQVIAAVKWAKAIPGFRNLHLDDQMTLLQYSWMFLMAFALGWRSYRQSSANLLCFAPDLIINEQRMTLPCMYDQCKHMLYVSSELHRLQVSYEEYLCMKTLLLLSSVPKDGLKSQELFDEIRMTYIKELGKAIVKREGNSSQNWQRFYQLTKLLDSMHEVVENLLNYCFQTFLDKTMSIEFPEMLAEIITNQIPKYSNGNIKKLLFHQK
Records with an inconclusive call do not appear. Active and inactive are the calls of the source. Calls come from the whole dose curve; as a rule, active = well fitted activation curve with a large enough effect in the signal ratio in the repeat runs (not every such curve was filed as active); inconclusive = weak or mixed curves, or effect the other way; inactive = no such curve, though single readings can be large or run the other way; the % refers to the signal ratio.
Just give me one of these, please: 1 for active, 0 for inactive

Hi team, can someone confirm the assay call for CCC(C)c1cc(C(C)(C)C)c(O)c(C(C)(C)C)c1 (centres undefined) ? 0

Status in this test for `CC(C)(O)c1ccc(CNC(=O)c2cccnc2Oc2ccc(F)cc2)cc1` ? 0

Entry CCCCC(CC)CN1C(=O)C2C3C=CC(C3)C2C1=O (centres undefined) : call = ? 0

Please share the test call associated with `CC(=O)c1cccc([N+](=O)[O-])c1` . 0

Lab log entry: CC1OC(=O)C(C)OC1=O (centres undefined) — outcome as called in the assay? 0

Which result was noted for this compound in the test: `CN1CCN(C(c2ccccc2)c2ccccc2)CC1` 0

Record request — test call for `Cc1oc(-c2ccccc2)nc1CCOc1cccc2c1ccn2CCC(=O)O` 0

How did this test come out for `C/C(=C(\CCOP(=O)(O)O)SC(=O)c1ccccc1)N(C=O)Cc1cnc(C)nc1N` ? 1

Could you please tell me the result logged for `CN(C)CCN(Cc1ccccc1)c1ccccn1` in this assay? 0

Record lookup: outcome of this test for `Cc1ncc(CO)c(C=O)c1O` ? 0

Which result was noted for this compound in the test: `COC(C)(C)CCO` 0

I would be grateful if you could indicate the recorded call for `CC(C)C[C@H]1C(=O)N2CCC[C@H]2[C@]2(O)O[C@](NC(=O)[C@@H]3C=C4c5cccc6[nH]c(Br)c(c56)C[C@H]4N(C)C3)(C(C)C)C(=O)N12` . 0

Assay result, entry CC1CCC(=O)C1=O (centres undefined) — outcome? 0

Record lookup: outcome of this test for `O=C1C(O)=C(O)C(=O)C(O)=C1O` ? 0

Dear all, I need the recorded test outcome for `C=C1C(=C/C=C2\CCC[C@]3(C)[C@@H]([C@H](C)/C=C/[C@@H](O)C4CC4)CC[C@@H]23)C[C@@H](O)C[C@@H]1O` , thank you. 0

Which outcome was assigned to `O=[N+]([O-])c1ccc2[nH]ncc2c1` in this test? 0

Status in this test for `NC(N)=NCCC[C@H](N)C(=O)O` ? 0

What did the test return for `O=C(Nc1ccc(S(=O)(=O)N2CCOCC2)cc1)c1cc(Cl)ccc1NS(=O)(=O)c1ccc(Cl)s1` ? 0

Call for entry COc1ccc(-c2nc3ccc(C4=NNC(=O)CC4C)cc3[nH]2)cc1 (centres undefined) : 0

# fetch the recorded call for `CN1CCC(=C2c3ccccc3Sc3ccccc32)CC1` here 0

# fetch the recorded call for `Nc1cccc(S(=O)(=O)c2cccc(N)c2)c1` here 0

Answer briefly: the call reported for `CC(C)Nc1ccc(NC(C)C)c2c1C(=O)c1ccccc1C2=O` in this assay. 0

Test call, this compound: `CCCCc1ncc(/C=C(\Cc2cccs2)C(=O)O)n1Cc1ccc(C(=O)O)cc1` 0

// outcome(item) with item = `C=CC(=O)OCCOc1ccccc1` 0
